biological target: Collagenase-3 (MMP-13) (Homo sapiens); assay: Collagenase-3 (MMP-13) inhibitory activity, fluorogenic peptide substrate cleavage; type: biochemical; conditions: read-out: MMP13 IC50
valueType: IC50 (µM)
Numbers only, in µM.

Answered examples (6):
N#Cc1ccc(C(=O)c2ccc(Cl)c(S(N)(=O)=O)c2)cc1; 0.56
NS(=O)(=O)c1cc(C(=O)c2ccc(O)c(F)c2)ccc1Cl; 11.1
COc1ccc(C(=O)c2ccc(Cl)c(S(N)(=O)=O)c2)c(OC)c1; 25.3
Cc1cccc(-c2ccc(C(=O)c3ccc(Cl)c(S(N)(=O)=O)c3)cc2)c1 [Example 77]; 23.1
COc1ccc(-c2c[nH]c3cc(C(=O)c4ccc(Cl)c(S(N)(=O)=O)c4)ccc23)cc1; 6.04
NS(=O)(=O)c1cc(C(=O)c2ccc3nc[nH]c3c2)ccc1Cl; 0.63

Hi team, please reply with IC50 for each item in this list.
1. NS(=O)(=O)c1cc(C(=O)c2cccs2)ccc1Cl
2. CN(C)CCOc1cc(-c2c[nH]c3cc(C(=O)c4ccc(Cl)c(S(N)(=O)=O)c4)ccc23)ccn1
3. Cn1ccc2cc(C(=O)c3ccc(Cl)c(S(N)(=O)=O)c3)ccc21

**Result**
14.7
0.017
3.13
